PROTOCOL_SUMMARY: 14-day repeat dose IV toxicity study with toxicokinetic evaluation on Day 1 and Day 14 in rats
Assay type: in vivo, Wistar rats
EXPERIMENTAL_CONTEXT: rat, in vivo, iv, 1 mg/kg/day, IV 1.0 mg/kg/day, female, Day 1, read-out: AUC0-∞ (converted)
Ends that are not written are not given here.

{"SUBSTANCE": "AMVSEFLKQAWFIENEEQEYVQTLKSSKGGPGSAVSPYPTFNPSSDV-NH2 [Peptide 1]", "AUC(0-inf) [µg·h/mL]": 0.918}

---

PROTOCOL_SUMMARY: 14-day repeat dose IV toxicity study with toxicokinetic evaluation on Day 1 and Day 14 in rats
Type: in vivo, Wistar rats
EXPERIMENTAL_CONTEXT: rat, in vivo, iv, 3 mg/kg/day, IV 3.0 mg/kg/day, male, Day 14, read-out: T1/2
Protocol: Peptide 1 in blood samples collected from animals used in the studies (rat and dog) has been measured by an LC-MS/MS method. Analysis of samples collected in the pharmacokinetic study in rats was performed prior to validation of the method. Prior to analysis of samples from the GLP toxicology studies, the method was validated according to GLP to ensure that it is selective, accurate, reproducible, and able to produce reliable results. […]
Ends that are not written are not given here.

{"SUBSTANCE": "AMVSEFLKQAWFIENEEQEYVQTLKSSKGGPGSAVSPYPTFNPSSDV-NH2 [Peptide 1]", "UNIT_OF_MEASUREMENT": "min", "half-life": 6.67}

---

PROTOCOL_SUMMARY: PK after single intravenous injection of Peptide 1 in male rats
Parameters: species or system male Wistar (CRL: WI(Han)) rats
EXPERIMENTAL_CONTEXT: rat, in vivo, single IV 0.1 mg/kg, initial elimination phase
Ends that are not written are not given here.
PARAMETER: C0

{"SUBSTANCE": "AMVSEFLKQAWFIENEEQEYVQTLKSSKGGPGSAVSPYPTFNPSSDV-NH2 [Peptide 1]", "VALUE_OBSERVED": "1790 ng/mL"}

---

PROTOCOL_SUMMARY: Clinical test in humans, three 30-min i.v. infusions 8 hours apart, plasma PK
Assay type: in vivo
EXPERIMENTAL_CONTEXT: human, in vivo, iv, 200 ug/kg, three 30-min i.v. infusions 8 h apart, 200 μg/kg each, median, read-out: tmax3
Ends that are not written are not given here.

{"SUBSTANCE": "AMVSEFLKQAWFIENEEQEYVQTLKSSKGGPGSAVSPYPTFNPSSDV-NH2 [Peptide 1]", "Tmax": "16.5 h"}

---

PROTOCOL_SUMMARY: Clinical test in humans, three 30-min i.v. infusions 8 hours apart, plasma PK
Format: in vivo
EXPERIMENTAL_CONTEXT: human, in vivo, iv, 200 ug/kg, three 30-min i.v. infusions 8 h apart, 200 μg/kg each, GM, read-out: AUC0-tau1
Ends that are not written are not given here.

{"SUBSTANCE": "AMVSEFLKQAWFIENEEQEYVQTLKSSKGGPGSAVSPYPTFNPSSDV-NH2 [Peptide 1]", "AUC": "2590 ng·h/mL"}

---

PROTOCOL_SUMMARY: Clinical test in humans, three 30-min i.v. infusions 8 hours apart, plasma PK
Type: in vivo
EXPERIMENTAL_CONTEXT: human, in vivo, iv, 140 ug/kg, three 30-min i.v. infusions 8 h apart, 140 μg/kg each, median, read-out: tmax3
Ends that are not written are not given here.
PARAMETER: Tmax (h)

{"SUBSTANCE": "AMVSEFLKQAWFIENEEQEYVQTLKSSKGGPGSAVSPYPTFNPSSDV-NH2 [Peptide 1]", "VALUE_OBSERVED": 16.5}
